// values below are reported TGI
test system: EKVX NSCLC; test: NCI tumour cell line growth inhibition, 48 h

- COMPOUND: "NCC1OC(OC2C(N)CC(N)C(O)C2OC2OC(CO)C(O)C2O)C(N)C(O)C1O (configuration not stated)"
  TGI: "> 100 µM"
- COMPOUND: "COc1ccc(N=C2C(=O)Nc3ccc(Br)cc32)cc1"
  TGI: "47.1 µM"
- COMPOUND: "COc1ccc([C@H]2c3[nH]c4ccccc4c3C[C@H]3C(=O)N(CCCCCCC(=O)NO)CC(=O)N23)cc1"
  TGI: "> 33.3 µM"
- COMPOUND: "CCOC(=O)CSc1nc(-c2ccc(Cl)cc2)c(C#N)c(=O)[nH]1"
  TGI: "> 100 µM"
- COMPOUND: "CCOC(=O)C(=O)Nc1nc2ccc(OC)cc2s1"
  TGI: "> 100 µM"
- COMPOUND: "C=C(/C=C/C=C(\\CO)CCC=C(C)C)[C@H]1CCC2([C@H](CCCO)/C(=C(/C)C=O)CC[C@]2(C)O)[C@H]1O (some centres not stated)"
  TGI: "> 100 µM"
- COMPOUND: "CC(C)(C)c1cnc(CSc2cnc(NC(=O)C3CCNCC3)s2)o1"
  TGI: "> 10 µM"
- COMPOUND: "O=c1[nH]c(NCCCCCO)nc2nc[nH]c12"
  TGI: "> 100 µM"
- COMPOUND: "Cc1cc(Br)c(O)c(-c2cscn2)c1"
  TGI: "96.1 µM"
- COMPOUND: "COc1ccc(/C(C#N)=C2/O/C(=N/N)C(c3ccc(OC)c(OC)c3)C2=O)cc1OC (configuration not stated)"
  TGI: "> 100 µM"
- COMPOUND: "CC1=NN(C(=O)CC(=O)Nc2cccc(C)c2)C(=O)C1N=Nc1ccc(C(=O)O)cc1 (configuration not stated)"
  TGI: "> 100 µM"
- COMPOUND: "Cc1cc(=O)[nH]c2c1C(=O)c1c(C)cc(=O)n(C)c1C2=O"
  TGI: "0.366 µM"
- COMPOUND: "O=C(O)c1cc2ccc(Cl)cc2c(O)c1C1=CCCCC1"
  TGI: "> 100 µM"
- COMPOUND: "CCOC(=O)C(NC(=O)c1ccccc1)(Nc1ccc(S(=O)(=O)Nc2cc(C)on2)cc1)C(F)(F)F (configuration not stated)"
  TGI: "> 100 µM"
- COMPOUND: "CC(C)(C)[C@H]1NC(=O)CN1C(=O)OCc1ccccc1"
  TGI: "> 100 µM"
- COMPOUND: "c1csc(-c2cc(-c3ccsc3)cs2)c1"
  TGI: "> 100 µM"
- COMPOUND: "Clc1ccc(/C=C/c2csnn2)cc1"
  TGI: "> 100 µM"
- COMPOUND: "O=c1ccc(=O)c2c1c1[nH]c3ccccc3c1c1c(=O)c3ccccc3c(=O)c21"
  TGI: "> 10 µM"
- COMPOUND: "COc1ccccc1-c1cc(=O)c2cccnc2[nH]1"
  TGI: "> 100 µM"
- COMPOUND: "CN(C)CCCNC(=O)N/N=C/c1ccccn1"
  TGI: "> 10 µM"
- COMPOUND: "CC(C)OC(=O)c1cc(NC(=S)OC(C)C)ccc1Cl"
  TGI: "32.7 µM"
- COMPOUND: "COc1cc(-c2cc(OC)c(OC)c3ccc(Br)cc23)c2cc(Br)ccc2c1OC"
  TGI: "> 100 µM"
- COMPOUND: "Nc1nc2c([nH]1)c1[nH]c3ccccc3c1c1[nH]c3ccccc3c21"
  TGI: "30.8 µM"
- COMPOUND: "Cc1cc(C)nc(NS(=O)(=O)c2ccc(NC(=O)c3ccc4nc5ccccc5c(Nc5ccc(S(=O)(=O)N=C(N)N)cc5)c4c3)cc2)n1"
  TGI: "> 100 µM"
- COMPOUND: "COc1ccc2c3c(c4cc(OC)c(OC)cc4c2c1)CN1CCC[C@H]1[C@@H]3O"
  TGI: "0.578 µM"
- COMPOUND: "CCCCCCCCCCCCCCCCOC[C@H](COC(c1ccccc1)(c1ccccc1)c1ccccc1)O[P+](=S)OC (some centres not stated)"
  TGI: "> 100 µM"
- COMPOUND: "CC(CSc1nc2c(c(=N)n1-c1ccccc1)c(=S)n(-c1ccccc1)c(=S)n2-c1ccccc1)CN(C)C (configuration not stated)"
  TGI: "3.12 µM"

Reference for the values: PubChem BioAssay (NCI)
